Below, each entry is listed alongside its reported Second-order inactivation rate constant.
Biological target: UniProtKB P07711
Test: Irreversible inhibition of human Cathepsin L assessed as second order rate constant using Cbz-Phe-Arg-AMC as fluorogenic substrate by fluorometric assay
ENDPOINT: Second-order inactivation rate constant

>>> print(df.to_string())
                                smiles_code  value_observed
0  O=C(NCc1ccccc1C(=O)N[C@H](/C=C/S(=O)(=O)c1ccccc1)CCc1ccccc1)c1ccncc1   1.16 10^3/M/s
1  O=C(NCc1ccccc1C(=O)N[C@H](/C=C/S(=O)(=O)Oc1ccccc1)CCc1ccccc1)c1cc(F)cc(F)c1   3.92 10^3/M/s
2  O=C(NCc1ccccc1C(=O)N[C@H](/C=C/S(=O)(=O)Oc1ccccc1)CCc1ccccc1)c1ccc2c(c1)OCCO2   3.34 10^4/M/s
3  O=C(NCc1ccccc1C(=O)N[C@H](/C=C/S(=O)(=O)c1ccccc1)CCc1ccccc1)c1cc(F)cc(F)c1   2.38 10^3/M/s

----------
Each item that follows carries a reported inhibition.
Biological target: Procathepsin L (Homo sapiens, UniProt P07711)
Sequence (P07711 114-333 limits assumed): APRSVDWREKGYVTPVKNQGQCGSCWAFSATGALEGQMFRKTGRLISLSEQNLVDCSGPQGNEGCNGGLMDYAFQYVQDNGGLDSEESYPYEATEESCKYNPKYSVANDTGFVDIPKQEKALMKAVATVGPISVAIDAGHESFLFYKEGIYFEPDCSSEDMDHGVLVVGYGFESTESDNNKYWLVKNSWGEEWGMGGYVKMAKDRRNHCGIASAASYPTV
Assay: Inhibition of human Cathepsin L at 20 uM using Cbz-Phe-Arg-AMC as fluorogenic substrate by fluorometric assay
ENDPOINT: inhibition

>>> print(df.to_string())
                                smiles_code                               target_desc    endpoint  value_observed
0  O=C(NCc1ccccc1C(=O)N[C@H](/C=C/S(=O)(=O)Cc1ccccc1)CCc1ccccc1)c1ccc2c(c1)OCCO2  Procathepsin L (Homo sapiens, UniProt P07711)  inhibition             39%
1  O=C(NCc1ccccc1C(=O)N[C@H](/C=C(\F)S(=O)(=O)Oc1ccccc1)CCc1ccccc1)c1ccc2c(c1)OCCO2  Procathepsin L (Homo sapiens, UniProt P07711)  inhibition             23%
2  O=C(NCc1ccccc1C(=O)N[C@H](/C=C(\F)S(=O)(=O)Cc1ccccc1)CCc1ccccc1)c1ccc2c(c1)OCCO2  Procathepsin L (Homo sapiens, UniProt P07711)  inhibition             15%
3  O=C(NCc1ccccc1C(=O)N[C@H](/C=C/S(=O)(=O)c1ccccc1)CCc1ccccc1)c1ccc2c(c1)OCCO2  Procathepsin L (Homo sapiens, UniProt P07711)  inhibition             41%
4  O=C(NCc1ccccc1C(=O)N[C@H](/C=C(\F)S(=O)(=O)Oc1ccccc1)CCc1ccccc1)c1cc(F)cc(F)c1  Procathepsin L (Homo sapiens, UniProt P07711)  inhibition             14%
5  O=C(NCc1ccccc1C(=O)N[C@H](/C=C/S(=O)(=O)Cc1ccccc1)CCc1ccccc1)c1cc(F)cc(F)c1  Procathepsin L (Homo sapiens, UniProt P07711)  inhibition             31%
6  O=C(NCc1ccccc1C(=O)N[C@H](/C=C(\F)S(=O)(=O)c1ccccc1)CCc1ccccc1)c1ccc2c(c1)OCCO2  Procathepsin L (Homo sapiens, UniProt P07711)  inhibition             31%

----------
Reported inhibition is given for each of the following molecules.
Biological target: Cathepsin B (Homo sapiens, UniProt P07858)
Assay: Inhibition of human Cathepsin B at 20 uM using Cbz-Phe-Arg-AMC as fluorogenic substrate by fluorometric assay
ENDPOINT: inhibition

>>> print(df.to_string())
                                smiles_code  value_observed
0  O=C(NCc1ccccc1C(=O)N[C@H](/C=C(\F)S(=O)(=O)Cc1ccccc1)CCc1ccccc1)c1ccc2c(c1)OCCO2           < 10%
1  O=C(NCc1ccccc1C(=O)N[C@H](/C=C(\F)S(=O)(=O)c1ccccc1)CCc1ccccc1)c1ccccc1           < 10%
2  O=C(NCc1ccccc1C(=O)N[C@H](/C=C/S(=O)(=O)c1ccccc1)CCc1ccccc1)c1ccncc1             44%

----------
Test: Cytotoxicity against mouse J774.1 cells assessed as reduction in cell viability incubated for 48 hrs by MTT assay
Assay type: toxicity, cell-based
Each entry below carries its recorded CC50 at 48 h.
ENDPOINT: CC50 at 48 h (µM)

                                smiles_code  qualifier_operator  value_observed
0  CN1CCN(C(=O)N[C@@H](Cc2ccccc2)C(=O)N[C@H](/C=C/S(=O)(=O)c2ccccc2)CCc2ccccc2)CC1                   =              41
1  O=C(NCc1ccccc1C(=O)N[C@H](/C=C(\F)S(=O)(=O)c1ccccc1)CCc1ccccc1)c1ccccc1                   =              43
2  CC(=O)N(Cc1ccccc1C(=O)N[C@H](/C=C/S(=O)(=O)c1ccccc1)CCc1ccccc1)C(C)=O                   =              36
3  O=C(NCc1ccccc1C(=O)N[C@H](/C=C(\F)S(=O)(=O)Oc1ccccc1)CCc1ccccc1)c1ccc2c(c1)OCCO2                   >             100
4  O=C(NCc1ccccc1C(=O)N[C@H](/C=C(\F)S(=O)(=O)Oc1ccccc1)CCc1ccccc1)c1ccncc1                   >             100
5  O=C(O)c1cccc(C(=O)NCc2ccccc2C(=O)N[C@H](/C=C/S(=O)(=O)c2ccccc2)CCc2ccccc2)c1                   >             100
6  CC(=O)NCc1ccccc1C(=O)N[C@H](/C=C/S(=O)(=O)c1ccccc1)CCc1ccccc1                   =              48
7  CNC(=O)Cc1ccccc1C(=O)N[C@H](/C=C/S(=O)(=O)c1ccccc1)CCc1ccccc1                   >             100
8  O=C(NCc1ccccc1C(=O)N[C@H](/C=C/S(=O)(=O)c1ccccc1)CCc1ccccc1)c1ccccc1                   >             100
9  O=C(NCc1ccccc1C(=O)N[C@H](/C=C/S(=O)(=O)c1ccccc1)CCc1ccccc1)c1cccc(O)c1                   =              36

----------
Molecular target: Rhodesain (Trypanosoma brucei rhodesiense, UniProt Q95PM0)
Sequence (Q95PM0 whole entry): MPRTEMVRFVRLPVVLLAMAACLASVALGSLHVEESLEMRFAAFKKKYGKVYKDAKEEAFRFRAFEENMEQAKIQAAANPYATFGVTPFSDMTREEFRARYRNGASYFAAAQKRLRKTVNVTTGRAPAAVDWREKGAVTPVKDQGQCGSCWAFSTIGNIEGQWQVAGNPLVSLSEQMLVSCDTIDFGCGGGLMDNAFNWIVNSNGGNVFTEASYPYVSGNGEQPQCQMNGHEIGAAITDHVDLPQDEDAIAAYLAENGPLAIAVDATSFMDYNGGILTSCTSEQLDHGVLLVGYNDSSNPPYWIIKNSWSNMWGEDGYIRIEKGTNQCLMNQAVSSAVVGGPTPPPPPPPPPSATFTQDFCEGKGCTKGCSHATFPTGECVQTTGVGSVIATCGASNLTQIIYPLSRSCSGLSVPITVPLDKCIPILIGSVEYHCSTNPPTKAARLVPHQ
Experiment: Irreversible inhibition of Trypanosoma brucei rhodesiense rhodesain assessed as inhibition constant using Cbz-Phe-Arg-AMC as fluorogenic substrate by fluorometric assay
ENDPOINT: log10(Ki) (log10 of the value in nM)

                                smiles_code                               target_desc  value_observed
0  CC(=O)N(Cc1ccccc1C(=O)N[C@H](/C=C/S(=O)(=O)c1ccccc1)CCc1ccccc1)C(C)=O  Rhodesain (Trypanosoma brucei rhodesiense, UniProt Q95PM0)            2.97
1  O=C(NCc1ccccc1C(=O)N[C@H](/C=C(\F)S(=O)(=O)Oc1ccccc1)CCc1ccccc1)c1ccncc1  Rhodesain (Trypanosoma brucei rhodesiense, UniProt Q95PM0)            2.96
2  O=C(NCc1ccccc1C(=O)N[C@H](/C=C/S(=O)(=O)c1ccccc1)CCc1ccccc1)c1ccc2c(c1)OCCO2  Rhodesain (Trypanosoma brucei rhodesiense, UniProt Q95PM0)            2.70
3  O=C(NCc1ccccc1C(=O)N[C@H](/C=C/S(=O)(=O)Cc1ccccc1)CCc1ccccc1)c1cc(F)cc(F)c1  Rhodesain (Trypanosoma brucei rhodesiense, UniProt Q95PM0)            2.55
4  CC(=O)NCc1ccccc1C(=O)N[C@H](/C=C/S(=O)(=O)c1ccccc1)CCc1ccccc1  Rhodesain (Trypanosoma brucei rhodesiense, UniProt Q95PM0)            3.67
5  O=C(NCc1ccccc1C(=O)N[C@H](/C=C(\F)S(=O)(=O)Cc1ccccc1)CCc1ccccc1)c1ccncc1  Rhodesain (Trypanosoma brucei rhodesiense, UniProt Q95PM0)            2.92
6  O=C(NCc1ccccc1C(=O)N[C@H](/C=C/S(=O)(=O)Cc1ccccc1)CCc1ccccc1)c1ccccc1  Rhodesain (Trypanosoma brucei rhodesiense, UniProt Q95PM0)            2.59
7  O=C(NCc1ccccc1C(=O)N[C@H](/C=C(\F)S(=O)(=O)Oc1ccccc1)CCc1ccccc1)c1cc(F)cc(F)c1  Rhodesain (Trypanosoma brucei rhodesiense, UniProt Q95PM0)            2.80
8  O=C(Cc1ccccc1C(=O)N[C@H](/C=C/S(=O)(=O)c1ccccc1)CCc1ccccc1)Nc1cccc(C(=O)O)c1  Rhodesain (Trypanosoma brucei rhodesiense, UniProt Q95PM0)            4.25

----------
Biological target: Rhodesain (Trypanosoma brucei rhodesiense) (UniProt Q95PM0)
Sequence (Q95PM0 1-450): as the sequence (Q95PM0 whole entry) above
Experiment: Irreversible inhibition of Trypanosoma brucei rhodesiense rhodesain assessed as Kinact using Cbz-Phe-Arg-AMC as fluorogenic substrate by fluorometric assay
We label by threshold. Values of Kinact strictly beneath 0.008 s⁻¹ are yes. Values of 0.008 s⁻¹ and up are no.

>>> print(df.to_string())
                                smiles_code                               target_desc  group
0  O=C(NCc1ccccc1C(=O)N[C@H](/C=C/S(=O)(=O)Cc1ccccc1)CCc1ccccc1)c1cc(F)cc(F)c1  Rhodesain (Trypanosoma brucei rhodesiense) (UniProt Q95PM0)     no
1  CN1CCN(C(=O)NCc2ccccc2C(=O)N[C@H](/C=C/S(=O)(=O)Cc2ccccc2)CCc2ccccc2)CC1  Rhodesain (Trypanosoma brucei rhodesiense) (UniProt Q95PM0)    yes
2  O=C(NCc1ccccc1C(=O)N[C@H](/C=C/S(=O)(=O)Oc1ccccc1)CCc1ccccc1)c1cc(F)cc(F)c1  Rhodesain (Trypanosoma brucei rhodesiense) (UniProt Q95PM0)     no
3  O=C(NCc1ccccc1C(=O)N[C@H](/C=C/S(=O)(=O)c1ccccc1)CCc1ccccc1)c1ccc2c(c1)OCCO2  Rhodesain (Trypanosoma brucei rhodesiense) (UniProt Q95PM0)    yes
4  O=C(NCc1ccccc1C(=O)N[C@H](/C=C/S(=O)(=O)c1ccccc1)CCc1ccccc1)c1cc(F)cc(F)c1  Rhodesain (Trypanosoma brucei rhodesiense) (UniProt Q95PM0)     no
5  O=C(O)c1ccc(C(=O)NCc2ccccc2C(=O)N[C@H](/C=C/S(=O)(=O)c2ccccc2)CCc2ccccc2)cc1  Rhodesain (Trypanosoma brucei rhodesiense) (UniProt Q95PM0)    yes
6  O=C(NCc1ccccc1C(=O)N[C@H](/C=C/S(=O)(=O)c1ccccc1)CCc1ccccc1)c1ccncc1  Rhodesain (Trypanosoma brucei rhodesiense) (UniProt Q95PM0)    yes
7  O=C(NCc1ccccc1C(=O)N[C@H](/C=C/S(=O)(=O)Cc1ccccc1)CCc1ccccc1)c1ccc2c(c1)OCCO2  Rhodesain (Trypanosoma brucei rhodesiense) (UniProt Q95PM0)    yes
8  O=C(NCc1ccccc1C(=O)N[C@H](/C=C/S(=O)(=O)Cc1ccccc1)CCc1ccccc1)c1ccncc1  Rhodesain (Trypanosoma brucei rhodesiense) (UniProt Q95PM0)    yes
